- Experiment Description: Antiproliferative activity against human Trastuzumab-sensitive BT474 cell assessed as inhibition of cell viability measured after 72 hrs by CellTiter 96 Aqueous One Solution Cell Proliferation Assay
- Assay type: functional, cell-based
- Measurement Parameters: BT-474, 72 h
Value Type: IC50

Query block: // returns reported IC50 for input COc1c(C(=O)Nc2ccc3c(C)nn(CCC4CCN(C)CC4)c3c2)ccc2c1C=CC(C)(C)O2
Result block: 6.86 µM

---

- Experiment Description: MRTinfinity in Sprague-Dawley rat at 5 mg/kg, iv
- Format: ADME, organism-based
- Measurement Parameters: in vivo
Value Type: MRT inf
Include the unit right after the number.

Query block: // returns reported MRT inf for input COc1c(C(=O)Nc2ccc3c(C)nn(CCC4CCN(C)CC4)c3c2)ccc2c1C=CC(C)(C)O2
Result block: 5.4 h

---

- Experiment Description: AUClast in Sprague-Dawley rat at 10 mg/kg, po
- Type: ADME, organism-based
- Measurement Parameters: in vivo
Value Type: AUC(0-t) (ng·h/mL)
Numbers only, in ng·h/mL.

Query block: // returns reported AUC(0-t) for input COc1c(C(=O)Nc2ccc3c(C)nn(CCC4CCN(C)CC4)c3c2)ccc2c1C=CC(C)(C)O2
Result block: 1030

---

- Study Target: CYP2D6 (Homo sapiens)
- Sequence (P10635 whole entry): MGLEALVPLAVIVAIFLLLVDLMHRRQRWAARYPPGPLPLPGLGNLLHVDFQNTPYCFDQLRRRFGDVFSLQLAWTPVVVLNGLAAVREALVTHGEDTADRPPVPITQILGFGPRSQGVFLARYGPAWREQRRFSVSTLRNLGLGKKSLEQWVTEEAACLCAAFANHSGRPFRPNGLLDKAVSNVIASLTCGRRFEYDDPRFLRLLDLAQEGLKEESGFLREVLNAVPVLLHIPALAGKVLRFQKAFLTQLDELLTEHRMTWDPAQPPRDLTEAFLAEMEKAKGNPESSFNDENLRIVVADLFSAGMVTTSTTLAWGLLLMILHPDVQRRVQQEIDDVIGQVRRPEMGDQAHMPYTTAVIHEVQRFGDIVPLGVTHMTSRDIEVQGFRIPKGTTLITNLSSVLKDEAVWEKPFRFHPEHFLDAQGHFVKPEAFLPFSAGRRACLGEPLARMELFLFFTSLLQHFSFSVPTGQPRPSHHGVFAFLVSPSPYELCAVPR
- Experiment Description: Inhibition of CYP2D6 (unknown origin) at 10 uM relative to control
- Assay type: ADME
Value Type: inhibition at 10 µM (%)
Answers are plain numbers, in %.

Query block: // returns reported inhibition at 10 µM for input COc1c(C(=O)Nc2ccc3c(C)nn(CCC4CCN(C)CC4)c3c2)ccc2c1C=CC(C)(C)O2
Result block: 55.3

---

- Experiment Description: Stability in rat plasma assessed as compound remaining incubated for 120 mins
- Format: ADME, cell-free
- Measurement Parameters: read-out: Stability
Value Type: remaining at 2 h (%)
Numbers only, in %.

Query block: // returns reported remaining at 2 h for input COc1c(C(=O)Nc2ccc3c(C)nn(CCC4CCN(C)CC4)c3c2)ccc2c1C=CC(C)(C)O2
Result block: 98.3

---

- Study Target: hERG (KCNH2) (Homo sapiens)
- Sequence (Q12809 whole entry): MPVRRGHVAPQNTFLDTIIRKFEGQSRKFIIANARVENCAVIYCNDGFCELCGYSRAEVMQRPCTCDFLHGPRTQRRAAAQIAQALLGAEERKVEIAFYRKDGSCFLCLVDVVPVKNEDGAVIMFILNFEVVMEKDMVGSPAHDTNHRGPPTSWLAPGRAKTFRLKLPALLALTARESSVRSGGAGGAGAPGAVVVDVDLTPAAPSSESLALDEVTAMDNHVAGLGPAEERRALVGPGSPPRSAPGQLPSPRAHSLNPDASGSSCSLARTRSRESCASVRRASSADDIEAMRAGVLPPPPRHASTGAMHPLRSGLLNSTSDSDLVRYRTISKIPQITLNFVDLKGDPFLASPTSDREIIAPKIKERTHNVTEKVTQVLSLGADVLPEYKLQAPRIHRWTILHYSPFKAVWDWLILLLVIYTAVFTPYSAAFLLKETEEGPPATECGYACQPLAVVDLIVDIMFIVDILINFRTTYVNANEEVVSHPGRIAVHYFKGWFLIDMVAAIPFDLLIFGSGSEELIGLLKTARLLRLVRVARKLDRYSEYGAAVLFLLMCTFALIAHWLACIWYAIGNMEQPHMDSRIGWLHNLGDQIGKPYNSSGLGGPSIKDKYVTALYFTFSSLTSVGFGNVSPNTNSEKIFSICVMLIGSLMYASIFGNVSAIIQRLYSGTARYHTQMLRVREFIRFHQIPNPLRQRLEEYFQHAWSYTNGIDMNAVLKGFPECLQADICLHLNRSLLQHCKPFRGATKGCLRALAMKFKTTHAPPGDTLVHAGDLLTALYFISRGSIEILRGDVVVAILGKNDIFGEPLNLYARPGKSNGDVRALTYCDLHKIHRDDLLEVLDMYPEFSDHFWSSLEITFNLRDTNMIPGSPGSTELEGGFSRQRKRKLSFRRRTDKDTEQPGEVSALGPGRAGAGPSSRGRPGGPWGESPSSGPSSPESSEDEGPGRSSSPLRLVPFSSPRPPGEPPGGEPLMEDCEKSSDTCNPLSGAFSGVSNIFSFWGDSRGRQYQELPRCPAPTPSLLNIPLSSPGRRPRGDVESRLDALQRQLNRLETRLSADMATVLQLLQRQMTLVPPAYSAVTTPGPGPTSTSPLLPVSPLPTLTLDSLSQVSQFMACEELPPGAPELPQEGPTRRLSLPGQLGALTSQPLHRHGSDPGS
- Experiment Description: Inhibition of human ERG at 10 uM by fluorescence polarization assay relative to control
Value Type: inhibition at 10 µM
Include the unit right after the number.

Query block: // returns reported inhibition at 10 µM for input COc1c(C(=O)Nc2ccc3c(C)nn(CCC4CCN(C)CC4)c3c2)ccc2c1C=CC(C)(C)O2
Result block: 57%

---

- Study Target: hERG (KCNH2) (Homo sapiens)
- Experiment Description: Inhibition of human ERG expressed in CHO cells at 3 uM by whole-cell patch clamp assay relative to control
- Type: toxicity, cell-based
- Measurement Parameters: CHO cells expressing hERG
Value Type: inhibition at 3 µM (%)
One number for each entry, in %.

Query block: // returns reported inhibition at 3 µM for input COc1c(C(=O)Nc2ccc3c(C)nn(CCC4CCN(C)CC4)c3c2)ccc2c1C=CC(C)(C)O2
Result block: 30.4

---

- Experiment Description: Clearance in Sprague-Dawley rat at 5 mg/kg, iv
- Format: ADME, organism-based
- Measurement Parameters: in vivo
Value Type: clearance
Include the unit right after the number.

Query block: // returns reported clearance for input COc1c(C(=O)Nc2ccc3c(C)nn(CCC4CCN(C)CC4)c3c2)ccc2c1C=CC(C)(C)O2
Result block: 84.5 mL/min
